system: LNCaP C4-2B; test: Cytotoxicity against human C4-2B cells after 72 hrs by MTT assay; assay type: functional, cell-based
Readout: IC50 (µM)

INSERT INTO measurements (structure_smiles, target_of_assay, unit_label, reported_measurement) VALUES
  ('C[C@@H]1NC(=O)/C=C/[C@@H](O)CC[C@H](C)NC(=O)[C@H]2C[C@]1(O)NC1=C2C(=O)N[C@@H](C)C1', 'LNCaP C4-2B', 'µM', 5.4);

src = ChEMBL document CHEMBL4190202
